Target: G6PDH-C (Pseudomonas putida)
Construct: gene zwf
Sequence (Q88C32 1-485): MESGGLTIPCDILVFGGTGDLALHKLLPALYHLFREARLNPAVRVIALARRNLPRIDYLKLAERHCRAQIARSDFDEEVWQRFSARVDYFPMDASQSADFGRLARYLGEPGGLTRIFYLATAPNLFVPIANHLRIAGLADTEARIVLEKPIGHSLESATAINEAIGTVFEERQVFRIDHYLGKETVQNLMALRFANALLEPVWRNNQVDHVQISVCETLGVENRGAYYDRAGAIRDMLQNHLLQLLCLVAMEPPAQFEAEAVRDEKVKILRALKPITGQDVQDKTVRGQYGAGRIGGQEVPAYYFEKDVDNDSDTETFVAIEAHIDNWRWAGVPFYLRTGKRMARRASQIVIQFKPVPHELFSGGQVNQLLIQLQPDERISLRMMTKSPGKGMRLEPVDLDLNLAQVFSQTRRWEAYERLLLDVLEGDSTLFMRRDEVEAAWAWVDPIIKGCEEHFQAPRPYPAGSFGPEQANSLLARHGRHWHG
Test: initial rates, NAD(P)H formation at […] nm, global fit (DYNAFIT), rapid-equilibrium random-ordered model
Assay type: biochemical
Settings: buffer A (50 mM Tris-HCl, 5 mM NaCl, 5 mM MgCl2, 5% glycerol), pH 8.0, 30°C; G6P varied; dissociation constant of NADP+ from free enzyme; read-out: NADP^+ / Ki
quantity_name: Kd (µM)
// units = µM; emit number, no label

Give recorded Kd. NC(=O)c1ccc[n+]([C@@H]2O[C@H](COP(=O)(O)OP(=O)(O)OC[C@H]3O[C@@H](n4cnc5c(N)ncnc54)[C@H](OP(=O)(O)O)[C@@H]3O)[C@@H](O)[C@H]2O)c1
9.2
